biological target: Neuronal acetylcholine receptor; alpha4/beta2 (Rattus norvegicus, UniProt P09483+P12390); experiment: In vitro inhibition of 5-(125I)A-85380 binding to nicotinic acetylcholine receptor (nAChR) of rat brain
Sequence (P09483 whole entry): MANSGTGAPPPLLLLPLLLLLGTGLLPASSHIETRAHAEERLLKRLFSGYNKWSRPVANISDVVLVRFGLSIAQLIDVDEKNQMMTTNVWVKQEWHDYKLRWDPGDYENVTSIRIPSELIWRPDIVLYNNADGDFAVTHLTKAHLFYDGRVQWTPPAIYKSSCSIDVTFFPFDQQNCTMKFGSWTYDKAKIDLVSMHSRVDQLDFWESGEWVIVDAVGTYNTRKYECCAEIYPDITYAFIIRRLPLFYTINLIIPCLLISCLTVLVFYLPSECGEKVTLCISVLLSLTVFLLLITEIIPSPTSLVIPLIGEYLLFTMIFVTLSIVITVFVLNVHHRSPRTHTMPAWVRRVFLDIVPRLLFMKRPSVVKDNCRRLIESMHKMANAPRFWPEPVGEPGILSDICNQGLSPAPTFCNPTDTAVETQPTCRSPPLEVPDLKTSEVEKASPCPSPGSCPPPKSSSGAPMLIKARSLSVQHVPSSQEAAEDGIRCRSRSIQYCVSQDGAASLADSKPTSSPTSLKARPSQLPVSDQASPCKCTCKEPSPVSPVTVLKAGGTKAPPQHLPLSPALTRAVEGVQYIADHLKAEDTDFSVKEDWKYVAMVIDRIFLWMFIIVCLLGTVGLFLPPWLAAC
Sequence (P12390 whole entry): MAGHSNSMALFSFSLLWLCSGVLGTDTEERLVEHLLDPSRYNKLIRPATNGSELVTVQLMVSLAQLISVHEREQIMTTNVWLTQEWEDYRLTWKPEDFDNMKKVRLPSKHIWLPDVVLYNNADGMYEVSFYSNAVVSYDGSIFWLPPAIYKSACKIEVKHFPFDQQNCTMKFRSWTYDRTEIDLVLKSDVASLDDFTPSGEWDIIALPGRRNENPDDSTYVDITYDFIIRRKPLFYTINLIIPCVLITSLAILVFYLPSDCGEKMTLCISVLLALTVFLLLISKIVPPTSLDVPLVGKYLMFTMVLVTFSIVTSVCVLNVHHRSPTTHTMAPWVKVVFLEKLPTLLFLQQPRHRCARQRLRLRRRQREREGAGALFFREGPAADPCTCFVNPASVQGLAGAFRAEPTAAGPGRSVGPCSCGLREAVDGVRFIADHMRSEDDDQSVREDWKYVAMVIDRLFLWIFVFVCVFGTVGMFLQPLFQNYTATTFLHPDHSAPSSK
quantity: Ki (nM)
// return numeric value only (unit: nM, not printed)

CN1CCCC1COc1cnc(Cl)c(/C=C/c2cccnc2)c1 (stereo not given)	0.088
Clc1ncc(OCC2CCN2)cc1/C=C/c1ccncc1 (stereo not given)	0.009
CN1CCCC1COc1cnc(Cl)c(CCc2ccncc2)c1 (stereo not given)	0.023

Fill in the blank: the reported Ki of Clc1ncc(OCC2CCCN2)cc1/C=C/c1ccccn1 (stereo not given) is ____. 0.331

I'd like to know its Ki. The compound in question is CN1CCCC1COc1cnc(Cl)c(/C=C/c2ccncc2)c1 (stereo not given) 0.028

GET /values?readout=Ki&item= Clc1ncc(OCC2CCCN2)cc1CCc1ccncc1 (stereo not given) 0.011

Would you kindly share the measured Ki for Clc1ncc(OCC2CCCN2)cc1/C=C/c1cccnc1 (stereo not given) ? 0.028

Name the recorded Ki for CN1CCCC1COc1cnc(Cl)c(/C=C/c2ccccn2)c1 (stereo not given) . 0.265

Name the reported Ki value associated with the compound Clc1ncc(OCC2CCCN2)cc1/C=C/c1ccncc1 (stereo not given) 0.015

Which Ki is reported for this compound? CN1CCC1COc1cnc(Cl)c(/C=C/c2ccncc2)c1 (stereo not given) 0.072
